Taken from patent US20040067507A1.

- Tested on: Sprague Dawley rats Crl:CD
- Assay type: in vivo, rat
- Test Conditions: 20 mg/kg i.p., 72 h; 1=no histopathology, 2 or higher=increasing severity
Quick reference: Inflamm. Score of the listed items.

Compound	Inflamm. Score
CN(N=O)C(=O)N[C@H]1C(O)O[C@H](CO)[C@@H](O)[C@@H]1O (mixture of isomers)	1
CN(C)N=O	4
C[C@@H]1[C@H](O)[C@@H](C)/C=C/C=C/C=C/C=C/C=C/C=C/C=C/[C@H](O[C@@H]2O[C@H](C)[C@@H](O)[C@H](N)[C@@H]2O)C[C@@H]2O[C@](O)(C[C@@H](O)C[C@@H](O)[C@H](O)CC[C@@H](O)C[C@@H](O)CC(=O)O[C@H]1C)C[C@H](O)[C@H]2C(=O)O	1
CCC1(c2ccccc2)C(=O)NC(=O)NC1=O	1
NNc1ccccc1 [phenylhydrazine]	1

###

- Test system: Sprague Dawley rats Crl:CD
- Assay type: in vivo, rat
- Test Conditions: 20 mg/kg i.p., 72 h
Quantity Kind: Liver Necrosis

Compound	Result
CN(N=O)C(=O)N[C@H]1C(O)O[C@H](CO)[C@@H](O)[C@@H]1O (mixture of isomers) [streptozotocin]	no
CCC1(c2ccccc2)C(=O)NC(=O)NC1=O [phenobarbital]	no
C[C@@H]1[C@H](O)[C@@H](C)/C=C/C=C/C=C/C=C/C=C/C=C/C=C/[C@H](O[C@@H]2O[C@H](C)[C@@H](O)[C@H](N)[C@@H]2O)C[C@@H]2O[C@](O)(C[C@@H](O)C[C@@H](O)[C@H](O)CC[C@@H](O)C[C@@H](O)CC(=O)O[C@H]1C)C[C@H](O)[C@H]2C(=O)O [amphotericin B]	no
CN(C)N=O [dimethylnitrosamine]	yes
NNc1ccccc1 [phenylhydrazine]	no

###

- Tested on: Sprague Dawley rats Crl:CD
- Format: in vivo, rat
- Test Conditions: 20 mg/kg i.p., 72 h; 1=no histopathology, 2 or higher=increasing severity

Compound	Necr. Score
C[C@@H]1[C@H](O)[C@@H](C)/C=C/C=C/C=C/C=C/C=C/C=C/C=C/[C@H](O[C@@H]2O[C@H](C)[C@@H](O)[C@H](N)[C@@H]2O)C[C@@H]2O[C@](O)(C[C@@H](O)C[C@@H](O)[C@H](O)CC[C@@H](O)C[C@@H](O)CC(=O)O[C@H]1C)C[C@H](O)[C@H]2C(=O)O	1
NNc1ccccc1 [phenylhydrazine]	1
CCC1(c2ccccc2)C(=O)NC(=O)NC1=O	1
CN(C)N=O	9
CN(N=O)C(=O)N[C@H]1C(O)O[C@H](CO)[C@@H](O)[C@@H]1O (mixture of isomers)	1

###

- System: Sprague Dawley rats Crl:CD
- Assay type: in vivo, rat
- Test Conditions: 20 mg/kg i.p., 72 h

Compound	Liver Inflammation
NNc1ccccc1 [phenylhydrazine]	no
CCC1(c2ccccc2)C(=O)NC(=O)NC1=O [phenobarbital]	no
CN(C)N=O [dimethylnitrosamine]	yes
CN(N=O)C(=O)N[C@H]1C(O)O[C@H](CO)[C@@H](O)[C@@H]1O (mixture of isomers) [streptozotocin]	no
C[C@@H]1[C@H](O)[C@@H](C)/C=C/C=C/C=C/C=C/C=C/C=C/C=C/[C@H](O[C@@H]2O[C@H](C)[C@@H](O)[C@H](N)[C@@H]2O)C[C@@H]2O[C@](O)(C[C@@H](O)C[C@@H](O)[C@H](O)CC[C@@H](O)C[C@@H](O)CC(=O)O[C@H]1C)C[C@H](O)[C@H]2C(=O)O [amphotericin B]	no
